molecular target: recombinant human caspase-3 (Homo sapiens, UniProt P42574); assay: Caspase-Glo […] luminescence assay, dose-response
Sequence (P42574 29-175): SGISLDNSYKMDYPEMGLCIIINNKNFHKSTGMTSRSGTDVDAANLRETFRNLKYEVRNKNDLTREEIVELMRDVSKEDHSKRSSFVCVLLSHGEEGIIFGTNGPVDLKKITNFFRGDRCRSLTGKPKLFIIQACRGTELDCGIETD
Sequence (P42574 176-277): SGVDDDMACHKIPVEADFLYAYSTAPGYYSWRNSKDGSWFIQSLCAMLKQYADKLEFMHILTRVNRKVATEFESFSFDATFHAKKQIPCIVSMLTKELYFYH
observedProperty: IC50 (µM)
Give the value, in units of µM, as a plain number.

Incoming: Find IC50 (recombinant human caspase-3 (Homo sapiens, UniProt P42574)) for the entry CC(C(=O)O)c1cccc(Oc2ccccc2)c1 (stereo not drawn)
Outgoing: 47

Incoming: Next record, please: `O=C(O)c1cc(-c2ccc(F)cc2F)ccc1O`
Outgoing: 10.4

---
Incoming: Find IC50 (recombinant human caspase-3 (Homo sapiens, UniProt P42574)) for the entry CC(C(=O)O)c1ccc2c(c1)Cc1cccnc1O2 (stereo not drawn)
Outgoing: 54.3
